Assay: yeast display, Sf9 membrane polyspecificity reagent, FACS + sequencing; frameworks hold sequencing errors
Experimental readout: polyreactivity (PSR sort gate)

[
  {
    "Chain sequence": "QDQLVESCGGLVQAGGSLRLICAASGITFRYNAMGWYRQAPGKERELVAAITFSGGSTYYADSVKGRFTISRDNAKNTVYLQMISLKPEDTAVYYCAARKARPPFPHPFDYYWGQGTQVTVSS",
    "polyreactivity (PSR sort gate)": "low polyreactivity"
  },
  {
    "Chain sequence": "QVQLVESGGGLVQAGGSLRLSCAASGRIFTINAMGWYRQAPGKERELVAAISNSGGRTYADSVKGRFTISRDNAKNTVYLLMNSLKAEDTAVYYCAKRYRFHFWGQGTQVTVSS",
    "polyreactivity (PSR sort gate)": "low polyreactivity"
  },
  {
    "Chain sequence": "QVQLVESGGGLVQAGGSLRLSCAASGRILRVYAMGWYRQAPGKERELVAAISSGGSTNYADSVKGRFTISRDNAKNTVYLQMNSLKPEDTAVYDCAATVRGVGYRYYYWGQGTQVTVSS",
    "polyreactivity (PSR sort gate)": "high polyreactivity"
  },
  {
    "Chain sequence": "QVQLVESGGGLVQAGGSLRLSCAASGRIFGYYAMGWYRQAPGKERELVAAIYSGGSTYYADSVKGRFTISRDNAKNTVYLQMNSLKPEDTAVYYCAAYYYGWYTPSQSPKYDYWGQGTQVTVSS",
    "polyreactivity (PSR sort gate)": "high polyreactivity"
  }
]

We now examine a further sequence.
Request: Using the record for QVQLVESGGGLVQAGGSLRLSCAASGSTFGSYAMGWYRQAPGKERELVADISSRGASTYYADSVKGRFTISRDNAKNTVYFQMNSLKPEDTAVYYCARDVYIWYGYGYFPEYEYWGQGTQVTVSS , report its polyreactivity (PSR sort gate).
Response: low polyreactivity
